# testedSystem: human vasopressin V1a receptor (Homo sapiens, UniProt P37288)
# Sequence (P37288 whole entry): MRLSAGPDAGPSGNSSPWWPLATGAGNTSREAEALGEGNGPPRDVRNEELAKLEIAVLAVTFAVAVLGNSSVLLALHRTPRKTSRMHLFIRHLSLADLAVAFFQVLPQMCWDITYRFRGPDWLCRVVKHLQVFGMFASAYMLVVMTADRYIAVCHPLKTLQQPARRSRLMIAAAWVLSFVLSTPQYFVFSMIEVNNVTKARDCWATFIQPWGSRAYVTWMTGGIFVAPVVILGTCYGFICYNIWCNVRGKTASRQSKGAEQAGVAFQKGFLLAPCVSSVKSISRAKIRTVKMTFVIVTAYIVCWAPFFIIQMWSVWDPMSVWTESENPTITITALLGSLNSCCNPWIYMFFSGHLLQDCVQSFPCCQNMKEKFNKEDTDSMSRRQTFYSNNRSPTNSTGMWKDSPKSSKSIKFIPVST
# methodNotes: Human vasopressin V1a receptor binding assay
# experimentalParameters: 1321N1 cell membranes, [3H]vasopressin; read-out: Ki (nM) on hV1a cell line
assayEndpoint: Ki (nM)

1. CC[C@]1(OC)CC[C@@H](c2nnc3n2-c2ccc(Cl)cc2CC2(C3)OCCO2)CC1 [Example 240]    0.5
2. Clc1ccc2c(c1)CC1(Cc3nnc([C@H]4CC[C@H](Oc5ccccn5)CC4)n3-2)OCCCCO1 [Example 106]    0.1
3. CN(C)C1Cc2cc(C(F)(F)F)ccc2-n2c(nnc2[C@H]2CC[C@H](Oc3ccccn3)CC2)C1 (stereo partly shown) [Example 35]    9.7

P: O=C(N[C@H]1Cc2cc(Cl)ccc2-n2c(nnc2[C@H]2CC[C@H](Oc3ccccn3)CC2)C1)C1CC(F)(F)C1 [Example 210]
Q: CO[C@@H]1Cc2cc(F)ccc2-n2c(nnc2[C@H]2CC[C@H](Oc3ccccn3)CC2)C1 (single isomer, unassigned) [Example 176]
Prompt: For the pair P and Q , which entry has the numerically smaller recorded Ki? Mark your answer with the label of the selected entry.
Completion: Q

a: c1ccc(O[C@H]2CC[C@H](c3nnc4n3-c3ccccc3CC3(C4)OCCO3)CC2)nc1 [Example 63]
b: COC1Cc2cc(Cl)ccc2-n2c(nnc2[C@@H]2CCN(Cc3ccccn3)C2)C1 (stereo partly shown) [Example 248]
Prompt: # compare Ki for a vs b ; return the one with the smaller value To answer, give the label that identifies your chosen option.
Completion: a

----------
# testedSystem: human vasopressin V1a receptor (Homo sapiens)
# methodNotes: Human vasopressin V1a receptor binding assay
# experimentalParameters: 1321N1 cell membranes, [3H]vasopressin; read-out: Ki (nM) on hV1a cell line
assayEndpoint: Ki (nM)

Example results:
1. Fc1ccc(CN[C@H]2Cc3cc(Cl)ccc3-n3c(nnc3[C@H]3CC[C@H](Oc4ccccn4)CC3)C2)cc1    4.4
2. O=C(OC1Cc2cc(Cl)ccc2-n2c(nnc2[C@H]2CC[C@H](Oc3ccccn3)CC2)C1)C1CC(F)(F)C1 (some centres unmarked)    0.6
3. CC(=O)NC1Cc2cc(Cl)ccc2-n2c(nnc2[C@H]2CC[C@H](Oc3ccccn3)CC2)C1 (some centres unmarked)    0.8

a: FC(F)(F)[C@H]1CC[C@H](c2nnc3n2-c2ccc(Cl)cc2CC2(C3)OCCO2)CC1
b: CN(C)CCOC1Cc2cc(Cl)ccc2-n2c(nnc2[C@H]2CC[C@H](Oc3ccccn3)CC2)C1 (some centres unmarked)
Prompt: Between a and b , which one has the lower reported Ki value? Choose, then provide that item's label.
Completion: a

a: Clc1ccc2c(c1)CC1(Cc3nnc(N4CCN(c5ncccc5Cl)CC4)n3-2)OCCO1
b: C#CCOC1Cc2cc(Cl)ccc2-n2c(nnc2[C@H]2CC[C@H](Oc3ccccn3)CC2)C1 (some centres unmarked)
c: COC1Cc2cc(Cl)ccc2-n2c(nnc2N2CCN(c3ccccn3)CC2)C1 (centres unmarked)
Prompt: Rank the items in ascending order with respect to Ki. The labels, placed in the requested order, form the answer.
Completion: a, b, c

----------
# testedSystem: human vasopressin V1a receptor (Homo sapiens, UniProt P37288)
# methodNotes: Human vasopressin V1a receptor binding assay
# experimentalParameters: 1321N1 cell membranes, [3H]vasopressin; read-out: Ki (nM) on hV1a cell line
assayEndpoint: Ki (nM)

Below, 5 compounds whose answers are already recorded.
1) CC(=O)N[C@H]1Cc2cc(Cl)ccc2-n2c(nnc2[C@H]2CC[C@H](Oc3ccccn3)CC2)C1    9.4
2) NC1Cc2cc(Cl)ccc2-n2c(nnc2[C@H]2CC[C@H](N3CCOCC3)CC2)C1 (stereo partly shown)    21
3) Clc1ccc2c(c1)CC(NC1COC1)Cc1nnc([C@H]3CC[C@H](Oc4ccccn4)CC3)n1-2 (stereo partly shown)    0.7
4) CC(C)(C)OC(=O)NC1Cc2ccccc2-n2c(nnc2[C@H]2CC[C@H](Oc3ccccn3)CC2)C1 (stereo partly shown)    14.3
5) N[C@@H](C(=O)N[C@@H]1Cc2cc(Cl)ccc2-n2c(nnc2[C@H]2CC[C@H](Oc3ccccn3)CC2)C1)c1ccccc1    1.1

1: Clc1ccc2c(c1)CC1(Cc3nnc(C4CN(c5ncccn5)C4)n3-2)OCCO1
2: Clc1ccc2c(c1)CC(OCC1CC1)Cc1nnc([C@H]3CC[C@H](Oc4ccccn4)CC3)n1-2 (stereo partly shown)
Prompt: Larger number for Ki: 1 , or 2 ? When you have decided, please share the label of that item.
Completion: 1
(1: 71 nM, 2: 0.8 nM)
